# Test system: HLA-A*23:01
# Protocol details: IEDB peptide-MHC binding, purified MHC/competitive/radioactivity; filed as Kd, often an IC50 or EC50 that approximates it; bounds were set here for any values at or beyond the usual limits of such assays
# Test conditions: source organism: Mammarenavirus juninense
Assay readout: pKd
Recall that pKd is obtained by taking minus log10 of the concentration measured in molar.

Query: Specify reported pKd for the sequence shown: PYIGSRSQI
Reply: 6.51

###

# Test system: HLA-A*31:01
# Protocol details: IEDB peptide-MHC binding, purified MHC/competitive/radioactivity; filed as Kd, often an IC50 or EC50 that approximates it; bounds were set here for any values at or beyond the usual limits of such assays
# Test conditions: source organism: Dengue virus 1 Brazil/97-11/1997
Assay readout: Kd (µM)
Lab book: enter the figure in µM, no units written.

Query: Specify reported Kd for the sequence shown: KVIDLGCGR
Reply: 9.21

###

# Test system: HLA-B*15:01
# Protocol details: IEDB peptide-MHC binding, purified MHC/competitive/fluorescence; filed as Kd, often an IC50 or EC50 that approximates it; bounds were set here for any values at or beyond the usual limits of such assays
# Test conditions: source organism: Vibrio vulnificus CMCP6
pKd: −log10 of the molar value.
Assay readout: pKd

Query: State, for HLA-B*15:01, measured pKd of the sequence listed here: FGAQMGWPV
Reply: ≤ 4.70

###

# Test system: HLA-A*26:01
# Protocol details: IEDB peptide-MHC binding, purified MHC/direct/fluorescence; filed as Kd, often an IC50 or EC50 that approximates it; bounds were set here for any values at or beyond the usual limits of such assays
# Test conditions: source organism: Variola virus
Assay readout: Kd

Query: Specify reported Kd for the sequence shown: IFLIITKVF
Reply: ≥ 20 µM

###

# Test system: HLA-A*02:11
# Protocol details: IEDB peptide-MHC binding, purified MHC/direct/fluorescence; filed as Kd, often an IC50 or EC50 that approximates it; bounds were set here for any values at or beyond the usual limits of such assays
# Test conditions: source organism: Crocodilepox virus
Assay readout: Kd

Query: State, for HLA-A*02:11, measured Kd of the sequence listed here: VVARLGVPY
Reply: ≥ 20 µM

###

# Test system: HLA-A*01:01
# Protocol details: IEDB peptide-MHC binding, purified MHC/direct/fluorescence; filed as Kd, often an IC50 or EC50 that approximates it; bounds were set here for any values at or beyond the usual limits of such assays
# Test conditions: source organism: Enterobacteria phage f1
Assay readout: Kd

Query: Specify reported Kd for the sequence shown: TFMYVFSTF
Reply: ≥ 20 µM

###

# Test system: HLA-A*03:01
# Protocol details: IEDB peptide-MHC binding, purified MHC/direct/fluorescence; filed as Kd, often an IC50 or EC50 that approximates it; bounds were set here for any values at or beyond the usual limits of such assays
# Test conditions: source organism: Escherichia coli O157:H7
Assay readout: pKd
Recall that pKd is obtained by taking minus log10 of the concentration measured in molar.

Query: Specify reported pKd for the sequence shown: FVYHPDRLK
Reply: 7.33

Query: Specify reported pKd for the sequence shown: RVIYPANQK
Reply: 7.46

###

# Test system: HLA-A*02:01
# Protocol details: IEDB peptide-MHC binding, purified MHC/competitive/fluorescence; filed as Kd, often an IC50 or EC50 that approximates it; bounds were set here for any values at or beyond the usual limits of such assays
# Test conditions: source organism: Influenza A virus (A/swine/Hannover/1/1981(H1N1))
Assay readout: Kd
Show the value, then the unit it is measured in.

Query: State, for HLA-A*02:01, measured Kd of the sequence listed here: ALMEWLKTRPI
Reply: 16.9 nM

Source listed as the Immune Epitope Database (IEDB).
